# test summary: Inhibition of nitric oxide production by Griess assay
# Format: functional
# Set-up: concentration or dose not given beside the values
# experimental parameters: dose or concentration not given here
quantity name: inhibition (%)

1. CCOCCS(=O)(=O)c1c(-c2ccccc2)no[n+]1[O-] : 10
2. O=S(=O)(c1ccccc1)c1c(-c2ccccc2)no[n+]1[O-] : 10.3
3. CCSCCS(=O)(=O)c1c(-c2ccccc2)no[n+]1[O-] : 10
4. COc1ccccc1NCCS(=O)(=O)c1c(-c2ccccc2)no[n+]1[O-] : 20.8
